- protocol notes: GSK_TCMDC: Inhibition Frequency Index (IFI). The number of non-kinase HTS assays where a compound showed > 50 % inhibition, expressed as a percentage of the number of such assays in which the compound was tested
- Type: functional
Whole data set: some 13,000 compounds, median “IFI” near 4, cut for the highest 2% near 17. The full list was thinned out, with the highest values kept by preference.
Listed here are compounds together with their documented IFI.
# value in %; strip the unit string

As a guide, the following entries are already answered.
compound_string=O=C(/C=C/c1ccc(C(F)(F)F)cc1)NCCCCCN1CCCN(C(=O)Nc2ccc(Cl)c(Cl)c2)CC1 unit_of_measure=% number=20.4
compound_string=ON=C1c2cc(OCCN3CCCCC3)c(Cl)cc2-c2cc(Cl)c(OCCN3CCCCC3)cc21 unit_of_measure=% number=9.42

Let's switch to this compound now.
Ask | For O=C(/C=C/c1ccc(C(F)(F)F)cc1)NCCCCCN1CCCN(C(=O)Nc2ccc(Cl)c(C(F)(F)F)c2)CC1 , write its IFI.
Reply | 18.8
